- targetOrTestSystem: Fuc(a1-2)[Gal(a1-3)]Gal(b1-4)GlcNAc(b1-2)Man(a1-3)[Fuc(a1-2)[Gal(a1-3)]Gal(b1-4)GlcNAc(b1-2)Man(a1-6)]Man(b1-4)GlcNAc(b1-4)GlcNAc
- protocolText: glycan array binding signal (z-score within array); higher = stronger binding
- experimentalContext: glycan notation: IUPAC condensed, linker removed
Only a selection was taken, and the strongest signals are over-represented in it overall.
Listed here: items and their measured glycan array binding signal (z-score).
propertyLabel: glycan array binding signal (z-score)

binder	measuredNumber
Gal 9 (Homo sapiens), O00182 (protein) MAFSGSQAPYLSPAVPFSGTIQGGLQDGLQITVNGTVLSSSGTRFAVNFQTGFSGNDIAFHFNPRFEDGGYVVCNTRQNGSWGPEERKTHMPFQKGMPFDLCFLVQSSDFKVMVNGILFVQYFHRVPFHRVDTISVNGSVQLSYISFQNPRTVPVQPAFSTVPFSQPVCFPPRPRGRRQKPPGVWPANPAPITQTVIHTVQSAPGQMFSTPAIPPMMYPHPAYPMPFITTILGGLYPSKSILLSGTVLPSAQRFHINLCSGNHIAFHLNPRFDENAVVRNTQIDNSWGSEERSLPRKMPFVRGQSFSVWILCEAHCLKVAVDGQHLFEYYHRLRNLPTINRLEVGGDIQLTHVQT	0.9
CPA (Cicer arietinum) (protein) MAFSYLNLVLVTLTTLFFLQTTKVKSQKSVSFHITNFTISRPSITLQGTAEFLPNVLLLNDIEHPVFVVGRALYSKPITLWNNKTGKVASFVTSFTFDVQDLKKTVPGHGLVFFLAPSGSEIPFSSDGGNLGVVDGKNAFNRFVGVEFDNFVNSWDPKYSHVGINVNSLISTKTVKWNRVSGELVKVSIVYDSVSTTLTVIVTYKNGQISILSQLVDLKAVLPDTVNIGFSASTTLVSPRQLHNIHSWSFTSTFET	0.562
